Every entry's value here was drawn from PubChem BioAssay.

assay: inhibitors of E-selectin induction by TNFa, primary screen, imaging, HUVEC, immunofluorescence, MLSMR starter and 10KST1 sets (AID 487); details: HUVEC TNFalpha-induced E-selectin immunofluorescence imaging, at 2 µM; hits give high values;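 note: signal is fraction of cell area covered by stained E-selectin grains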
For each of the molecules below, state its inhibition.
Write it as a number; the unit % goes unstated.

Qu. Query (molecule): O=C(COC(=O)C12CC3CC(CC(C3)C1)C2)NCc1ccco1 ; field requested: inhibition
Ans. -28.3

Qu. Queued: COC(=O)c1ccc(C2/C(=C(\O)c3ccc4c(c3)OCCO4)C(=O)C(=O)N2CCCN(C)C)cc1 (stereo unspecified)
Ans. 1.3

Qu. Moving on to the next molecule: CCCCCOc1ccccc1C(=O)NCC(=O)O
Ans. -55.5

Qu. Quick one: CCCc1nc2n[nH]c(N)c2c2c1COC(C)(C)C2
Ans. -13.2

Qu. # repeat for COCCNC(=O)CN1CCN(C(c2ccccc2)c2ccccc2)CC1
Ans. -7.5

Qu. Entry to check: C=CCn1c(COc2ccc(Cl)cc2)nnc1SCC(=O)N1CC(=O)Nc2ccccc21
Ans. -6.5

Qu. And then COc1ccc(OC)c(C2/C(=C(\O)c3ccc(OC)c(Cl)c3)C(=O)C(=O)N2CCN(C)C)c1 (stereo unspecified) , what is it?
Ans. -97.8

Qu. Another molecule to check: CCc1nnc(NC(=O)c2cc3ccccc3oc2=O)s1
Ans. -67.3

Qu. Input CCCn1c(O)c(CN2CCCC(C)C2)c(C)c(C#N)c1=O (stereo unspecified)
Ans. -59.7

Qu. What do you have for CCC(Oc1ccccc1)C(=O)Nc1ccccc1OC (stereo unspecified) ?
Ans. -33.3

Qu. And for COc1cccc(C2CC(c3ccccc3Cl)n3nc(N)nc3N2)c1 (stereo unspecified) ?
Ans. -136
